Listed compounds paired with reported IC50
Biological target: CYP1A2 (Homo sapiens, UniProt P05177)
Sequence (P05177 2-516 limits assumed): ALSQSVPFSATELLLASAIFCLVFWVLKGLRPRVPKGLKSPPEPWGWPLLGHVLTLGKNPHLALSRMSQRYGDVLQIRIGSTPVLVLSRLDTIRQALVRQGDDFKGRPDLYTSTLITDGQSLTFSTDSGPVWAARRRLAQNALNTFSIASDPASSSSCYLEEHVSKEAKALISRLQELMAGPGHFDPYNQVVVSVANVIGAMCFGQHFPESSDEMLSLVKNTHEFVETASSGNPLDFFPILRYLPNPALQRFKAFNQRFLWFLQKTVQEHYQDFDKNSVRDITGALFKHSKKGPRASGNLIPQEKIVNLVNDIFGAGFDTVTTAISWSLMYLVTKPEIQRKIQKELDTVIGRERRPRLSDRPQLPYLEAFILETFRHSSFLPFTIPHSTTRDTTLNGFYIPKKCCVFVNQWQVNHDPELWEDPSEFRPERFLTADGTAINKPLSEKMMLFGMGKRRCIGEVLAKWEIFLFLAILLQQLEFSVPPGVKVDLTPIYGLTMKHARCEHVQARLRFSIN
Test: Luminescent P450-Glo recombinant human CYP1A2 inhibition assay

# COMPOUND, IC50
measured = [
    ("CC(C)=C[C@H]1C[C@](C)(O)[C@@H]2[C@H]3CC[C@@H]4[C@@]5(C)CC[C@H](O[C@@H]6OC[C@H](O)[C@H](O[C@@H]7O[C@H](CO)[C@@H](O)[C@H](O)[C@H]7O)[C@H]6O[C@@H]6O[C@@H](CO)[C@H](O)[C@H]6O)C(C)(C)[C@@H]5CC[C@@]4(C)[C@@]34CO[C@@]2(C4)O1 [bacopaside X]", "> 100 µM"),
]

Next, consider the following compound.
Problem: For the compound CC(C)=C[C@H]1C[C@](C)(O)[C@@H]2[C@H]3CC[C@@H]4[C@@]5(C)CC[C@H](O[C@@H]6O[C@H](CO)[C@@H](O)[C@H](O[C@@H]7O[C@H](CO)[C@@H](O)[C@H](O)[C@H]7O)[C@H]6O[C@@H]6O[C@@H](CO)[C@H](O)[C@H]6O)C(C)(C)[C@@H]5CC[C@@]4(C)[C@@]34CO[C@@]2(C4)O1 [bacoside A3] , what IC50 is on record?
Solution: > 100 µM

###

Listed molecules paired with reported pIC50
Biological target: CYP1A2 (Homo sapiens, UniProt P05177)
Test: Luminescent P450-Glo recombinant human CYP1A2 inhibition assay
Protocol: The inhibitory effects of B. monnieri standardized extract and the constituents bacoside A, bacoside A3, bacopaside II, bacopaside X, bacopasaponin C and bacopaside I on human cytochrome P450 enzyme were examined using an in vitro luminescent assay. […] The enzyme assay was performed in 96-well white bottom flat plates (Nunc, Roskilde, Denmark). […] Before reading, the plate was incubated at room temperature for 20 min to stabilize the luminescent signal. […]
pIC50: −log10 of the molar value.

See these solved cases before continuing.
# MOLECULE, ASSAY SYSTEM, pIC50
data = [
    ("CC(C)=CC1COC23CC4(CO2)C(CCC2C5(C)CCC(OC6OC(CO)C(O)C(OC7OC(CO)C(O)C(O)C7O)C6OC6OC(CO)C(O)C6O)C(C)(C)C5CCC24C)C3C1(C)O (stereo not drawn) [bacopaside II]", "CYP1A2 (Homo sapiens, UniProt P05177)", "< 4.00"),
    ("CC(C)=CC1COC23CC4(CO2)C(CCC2C5(C)CCC(OC6OCC(O)C(OC7OC(COS(=O)(=O)O)C(O)C(O)C7O)C6OC6OC(CO)C(O)C6O)C(C)(C)C5CCC24C)C3C1(C)O (stereo not drawn) [bacopaside I]", "CYP1A2 (Homo sapiens, UniProt P05177)", "< 4.00"),
]

Next, consider the following molecule.
Problem: For the molecule CC(C)=C[C@@H]1CO[C@]23C[C@]4(CO2)[C@H](CC[C@@H]2[C@@]5(C)CC[C@H](O[C@@H]6OC[C@H](O)[C@H](O[C@@H]7O[C@H](CO)[C@@H](O)[C@H](O)[C@H]7O)[C@H]6O[C@@H]6O[C@@H](CO)[C@H](O)[C@H]6O)C(C)(C)[C@@H]5CC[C@]24C)[C@H]3[C@@]1(C)O , what pIC50 is on record?
Solution: < 4.00
